# target-desc: Acetylcholinesterase (Electrophorus electricus, UniProt O42275)
# Sequence (O42275 whole entry): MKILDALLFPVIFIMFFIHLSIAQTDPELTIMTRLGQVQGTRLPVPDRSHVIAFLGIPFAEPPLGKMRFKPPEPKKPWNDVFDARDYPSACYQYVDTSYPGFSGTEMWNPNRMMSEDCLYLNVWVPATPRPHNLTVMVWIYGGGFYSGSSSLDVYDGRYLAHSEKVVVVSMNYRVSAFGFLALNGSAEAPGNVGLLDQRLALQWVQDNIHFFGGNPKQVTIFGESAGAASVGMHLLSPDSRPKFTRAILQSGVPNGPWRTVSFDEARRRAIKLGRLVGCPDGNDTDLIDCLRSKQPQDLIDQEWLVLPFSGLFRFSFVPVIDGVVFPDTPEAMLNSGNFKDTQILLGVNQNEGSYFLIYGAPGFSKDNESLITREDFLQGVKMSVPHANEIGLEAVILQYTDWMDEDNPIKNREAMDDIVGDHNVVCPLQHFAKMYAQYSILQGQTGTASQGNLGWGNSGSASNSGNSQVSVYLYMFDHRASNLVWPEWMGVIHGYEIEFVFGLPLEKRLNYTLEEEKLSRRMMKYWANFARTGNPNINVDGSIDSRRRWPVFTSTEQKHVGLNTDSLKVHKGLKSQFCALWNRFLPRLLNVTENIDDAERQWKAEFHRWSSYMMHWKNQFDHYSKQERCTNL
pIC50: −log10 of the molar value.
Param threshold (7) applies to pIC50; output 1 when value >= threshold, -1 when value < threshold.

Req: Exam item: decide whether the reported pIC50 for O=C1c2ccccc2-c2ncc(OCCN3CCCCC3)c3cccc1c23 is at least 7.
Resp: -1

Req: Confirm if pIC50 reported for the compound CC[N+](C)(CC)CCOc1cnc2c3c(cccc13)C(=O)c1ccccc1-2 is 7 or above.
Resp: -1

Req: Evaluate CCN(CC)CCCOc1ccc2c3c(nccc13)-c1ccccc1C2=O : pIC50 at minimum 7?
Resp: 1

Req: Is the recorded value of pIC50 equal to or greater than 7 for this compound? C[N+](C)(C)CCOc1cnc2c3c(cccc13)C(=O)c1ccccc1-2
Resp: -1

Req: I'd appreciate it if you could say whether CN1CCN(CCOc2ccc3c4c(nccc24)-c2ccccc2C3=O)CC1 has pIC50 at least equal to 7.
Resp: -1

Req: Could you please find out whether CN(C)CCOc1cnc2c3c(cccc13)C(=O)c1ccccc1-2 has pIC50 that meets 7 or exceeds it?
Resp: -1

Req: Test whether the compound CN(C)CCCNc1ccc2c3c(nccc13)-c1ccccc1C2=O records pIC50 of 7 or higher.
Resp: -1

Req: Does the compound CCN(CC)CCOc1ccc2c3c(nccc13)-c1ccccc1C2=O have recorded pIC50 that is 7 or more?
Resp: -1

Req: Hello, I need to know if CN1CCN(CCCOc2ccc3c4c(nccc24)-c2ccccc2C3=O)CC1 has measured pIC50 not below 7. Thanks!
Resp: -1

Req: Is the recorded value of pIC50 equal to or greater than 7 for this compound? CCN(CC)CCOc1cnc2c3c(cccc13)C(=O)c1ccccc1-2
Resp: -1

Req: Textbook exercise: given the entry O=C1c2ccccc2-c2nccc3c(OCCCN4CCCCC4)ccc1c23 , state whether its pIC50 is greater than or equal to 7.
Resp: 1

Req: Check the entry O=C1c2ccccc2-c2ncc(OCCN3CCCC3)c3cccc1c23 : does pIC50 equal or exceed 7?
Resp: -1
